Source of measurements: PubChem BioAssay (NCATS)

# Assay comment: qHTS Assay for Identifying Gametocytocidal Compounds (AID 743244);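 further: on the % scale 0 is the no-effect control and ±100 the full control effect; actives lower the fluorescent signal which means gametocytes are killed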
# Condition notes: P. falciparum 3D7 stage III-V gametocytes, alamarBlue, 72 h; stronger effect = lower value
Records with an inconclusive call do not appear. Calls of active or inactive are those of the source. The call rests on the fitted dose curve; in most records, active means well fitted curve in the direction sought with a large enough effect; inconclusive means small, poorly fitted or top-dose-only effect, or another doubt; inactive means no such curve, though single readings can be large or run the other way.
The compounds listed here are annotated with their max response.

Observe how each entry below is paired with its result.
INSERT INTO assay_data (compound, observed_value) VALUES
  ('COc1cc(C)c(/C=C/C(C)=C/C=C/C(C)=C/C(=O)O)c(C)c1C', '1.95% (inactive)'),
  ('CCc1ncnc2cc(OC)c(OC)cc12', '-4.33% (inactive)'),
  ('N[C@@H](Cc1cc(I)c(Oc2ccc(O)c(I)c2)c(I)c1)C(=O)O', '3.17% (inactive)'),
  ('CC12CCC(C1)C(C)(C)C2=O (configuration not stated)', '-0.872% (inactive)');

[Q] What value of max response has been reported for the following compound? C[C@H]1O[C@@H](O[C@H]2[C@@H](O)C[C@H](O[C@H]3[C@@H](O)C[C@H](O[C@H]4CC[C@@]5(C)[C@H](CC[C@@H]6[C@@H]5C[C@@H](O)[C@]5(C)[C@@H](C7=CC(=O)OC7)CC[C@]65O)C4)O[C@@H]3C)O[C@@H]2C)C[C@H](O)[C@@H]1O
[A] -13.6% (inactive)

[Q] What value of max response has been reported for the following compound? COC1[C@@H](O[C@@H]2O[C@H](C)[C@@H](O[C@H]3C[C@@](C)(O)[C@H](OC(=O)CC(C)C)[C@H](C)O3)[C@H](N(C)C)[C@H]2O)[C@@H](CC=O)C[C@@H](C)[C@@H](O)/C=C/C=C/C[C@@H](C)OC(=O)C[C@H]1OC(C)=O (some centres not stated)
[A] 6% (inactive)

[Q] What value of max response has been reported for the following compound? O=C(O)Cc1cc(I)c(Oc2ccc(O)c(I)c2)c(I)c1
[A] 10.9% (inactive)

====

# Test system: CP215
# Assay comment: qHTS profiling for inhibitors of Plasmodium falciparum proliferation (AID 504749); further: nearly all actives have a fitted effect of over 60% in size
# Condition notes: P. falciparum in erythrocytes, SYBR Green DNA, 72 h; series mostly up to 28.7 µM
Inconclusive results are not listed. Active and inactive are the calls of the source. Calls follow the shape of the dose curve; as a rule, active = well fitted inhibition curve with a large enough effect; inconclusive = small, poorly fitted or top-dose-only effect; inactive = flat fitted curve, though single readings scatter.
// allowed return values: active, inactive

INSERT INTO assay_data (compound, group) VALUES
  ('CN=C1C=CC(=C(c2ccc(N(C)C)cc2)c2ccc(N(C)C)cc2)C=C1', 'active'),
  ('COc1ccc(C(=O)CCC(=O)O)c2ccccc12', 'inactive'),
  ('CC(=O)Nc1ccc(OC(=O)c2ccccc2O)cc1', 'inactive'),
  ('Cc1ncc(C[n+]2csc(CCOP(=O)(O)OP(=O)(O)O)c2C)c(N)n1', 'inactive'),
  ('OCC(O)CO', 'inactive');

[Q] Hi, do you know how COc1ccc(/C=C/C(=O)O)cc1 came out in this test?
[A] inactive

====

# Test system: W2
# Assay comment: qHTS profiling for inhibitors of Plasmodium falciparum proliferation (AID 504749); further: nearly all actives have a fitted effect of over 60% in size
# Condition notes: P. falciparum in erythrocytes, SYBR Green DNA, 72 h; series mostly up to 28.7 µM
Records with an inconclusive call do not appear. Calls of active or inactive are those of the source. Calls follow the shape of the dose curve; as a rule, active = well fitted inhibition curve with a large enough effect; inconclusive = small, poorly fitted or top-dose-only effect; inactive = flat fitted curve, though single readings scatter.
// allowed return values: active, inactive

Reference set, count: 2
INSERT INTO results (compound, group) VALUES
  ('O=P(O)(O)OC[C@H](O)CO', 'inactive'),
  ('CCCCCCCCCCCC(=O)OCC(O)CO (stereo unspecified)', 'inactive');

[Q] Hi, do you know how COc1cc(NCCCC(C)N)c2ncccc2c1 (stereo unspecified) came out in this test?
[A] active

[Q] Hi, do you know how O=C1CCC(=O)N1CO came out in this test?
[A] inactive

[Q] Hi, do you know how Cc1ccc(S(=O)(=O)O)cc1C came out in this test?
[A] inactive

[Q] Hi, do you know how Cc1nc(NS(=O)(=O)c2ccc(N)cc2)nc(C)c1Br came out in this test?
[A] inactive

====

# Test system: CP203
# Assay comment: qHTS profiling for inhibitors of Plasmodium falciparum proliferation (AID 504749); further: nearly all actives have a fitted effect of over 60% in size
# Condition notes: P. falciparum in erythrocytes, SYBR Green DNA, 72 h; series mostly up to 28.7 µM
Inconclusive results are not listed. Activity calls are given as the source filed them. Calls follow the shape of the dose curve; as a rule, active = well fitted inhibition curve with a large enough effect; inconclusive = small, poorly fitted or top-dose-only effect; inactive = flat fitted curve, though single readings scatter.
// allowed return values: active, inactive

Reference set, count: 10
INSERT INTO results (compound, group) VALUES
  ('Cc1cccc(C)c1NC(=O)NC1=CCCN1C', 'inactive'),
  ('COc1cc(S(C)=O)ccc1-c1nc2ncccc2[nH]1 (stereo not drawn)', 'inactive'),
  ('O=C(O)CCC/C=C\C[C@@H]1[C@@H](/C=C/[C@@H](O)COc2cccc(C(F)(F)F)c2)[C@H](O)C[C@@H]1O', 'inactive'),
  ('O=[n+]1ccn([O-])c2ccccc21', 'inactive'),
  ('Cc1cc(=O)c(C(=O)N[C@@H](C(=O)N[C@@H]2C(=O)N3C(C(=O)O)=C(CSc4nnnn4C)CS[C@H]23)c2ccc(O)cc2)c[nH]1', 'inactive'),
  ('CC(C)=CCC/C(C)=C/C=C/C(C)=C/C=C/C(C)=C/C=C/C=C(C)/C=C/C=C(C)/C=C/C=C(\C)CCC=C(C)C', 'inactive'),
  ('CN(C)CCCSc1ccccc1NC(=O)/C=C/c1ccccc1', 'inactive'),
  ('NC(=S)N=Nc1ccc(NN=C(N)N)cc1', 'active'),
  ('CCCCCCCCCCCC(=O)OCC(O)CO (stereo not drawn)', 'inactive'),
  ('S=C1SCN(Cc2ccccc2)CN1Cc1ccccc1', 'inactive');

[Q] Hi, do you know how Cc1ncc(COP(=O)(O)O)c(CN)c1O came out in this test?
[A] inactive

[Q] Hi, do you know how NC(N)=O came out in this test?
[A] inactive

[Q] Hi, do you know how COc1ccccc1N1CCN(CCCC(=O)c2ccc(F)cc2)CC1 came out in this test?
[A] inactive

====

# Tested on: C33A
# Assay comment: Primary qHTS to identify gynecologic anti-cancer compounds using libraries of approved drugs and bioactive compounds (AID 1345084); further: on the % scale 0 is the no-effect control and ±100 the full control effect; nearly all actives have a fitted effect of over 55% in size
# Condition notes: Gynecologic cancer cell panel viability, ATPlite luminescence, 48 h; series mostly up to 57.5 µM
Results filed as inconclusive are left out. Active and inactive are the calls of the source. Calls come from the whole dose curve; as a rule, active = well fitted cell-killing curve with a large enough effect; inconclusive = small, poorly fitted or top-dose-only effect, or effect the other way; inactive = flat fitted curve, though single readings scatter.
Result type: outcome

INSERT INTO measurements (smiles_input, assayed_target, observed_value) VALUES
  ('CN(C)CCCSc1ccccc1NC(=O)/C=C/c1ccccc1', 'C33A', 'inactive'),
  ('C=C1[C@H](CO)[C@@H](O)C[C@@H]1n1cnc2c(=O)[nH]c(N)nc21', 'C33A', 'inactive'),
  ('C=C1CC[C@H](O)CC1=C/C=C1\CCC[C@]2(C)[C@@H]([C@H](C)/C=C/[C@H](C)C(C)C)CC[C@@H]12', 'C33A', 'inactive');

====

# System: CP203
# Assay comment: qHTS profiling for inhibitors of Plasmodium falciparum proliferation (AID 504749); further: nearly all actives have a fitted effect of over 60% in size
# Condition notes: P. falciparum in erythrocytes, SYBR Green DNA, 72 h; series mostly up to 28.7 µM
Records with an inconclusive call do not appear. The source made the active and inactive calls. Calls come from the whole dose curve; as a rule, active = well fitted inhibition curve with a large enough effect; inconclusive = small, poorly fitted or top-dose-only effect; inactive = flat fitted curve, though single readings scatter.
// allowed return values: Y = active, N = inactive

Reference set, count: 8
INSERT INTO assay_data (molecule, group) VALUES
  ('CC(C)CCCC(C)NC(C)C (configuration not stated)', 'N'),
  ('C=CC[C@@H]1/C=C(\C)C[C@H](C)C[C@H](OC)[C@H]2O[C@@](O)(C(=O)C(=O)N3CCCC[C@H]3C(=O)O[C@H](/C(C)=C/[C@@H]3CC[C@@H](O)[C@H](OC)C3)[C@H](C)[C@@H](O)CC1=O)[C@H](C)C[C@@H]2OC', 'Y'),
  ('CN(C)C(=O)CCSC(SCCC(=O)O)c1cccc(/C=C/c2ccc3ccc(Cl)cc3n2)c1 (configuration not stated)', 'N'),
  ('CNC(=O)c1c(I)c(C(=O)NCC(=O)Nc2c(I)c(C(=O)O)c(I)c(C(=O)NCCO)c2I)c(I)c(N(C)C(C)=O)c1I', 'N'),
  ('CC/C(=C(/CC)c1ccc(OP(=O)(O)O)cc1)c1ccc(OP(=O)(O)O)cc1', 'N'),
  ('O=C1N=C2SCCN2C(=O)C1Cc1ccc(Cl)cc1 (configuration not stated)', 'N'),
  ('CC(C)OC(=O)Nc1ccc2nc(-c3cscn3)[nH]c2c1', 'N'),
  ('CO/N=C(/C(=O)N[C@@H]1C(=O)N2C(C(=O)O)=C(COC(N)=O)CS[C@H]12)c1ccco1', 'N');

[Q] Hi, do you know how CC(C)=CCC/C(C)=C/CC/C(C)=C/CC/C=C(\C)CC/C=C(\C)CCC=C(C)C came out in this test?
[A] N

[Q] Hi, do you know how CCCOC(=O)c1ccccc1O came out in this test?
[A] N

====

# Assay comment: qHTS assay for small molecule agonists of retinoid X receptor alpha signaling (AID 588544)
# Condition notes: HEK293T RXRa-UAS-bla, beta-lactamase reporter, 18 h; 530 nm emission
Inconclusive results are not listed.
Result type: max response (%)
The response must be a number in % with no trailing unit.

INSERT INTO results (compound, observed_value) VALUES
  ('O=P(O)(O)O', -7.11);

[Q] What value of max response has been reported for the following compound? NCCN
[A] -12.8

[Q] What value of max response has been reported for the following compound? C=CC(C)(O)CC/C=C(\C)CCC=C(C)C (stereo not drawn)
[A] 4.32

[Q] What value of max response has been reported for the following compound? [O-][N+](=Nc1ccccc1)c1ccccc1
[A] -6.82

[Q] What value of max response has been reported for the following compound? Cc1ccc(S(=O)(=O)NCl)cc1
[A] -13.1

[Q] What value of max response has been reported for the following compound? CN(CCO)CC(O)Cn1cnc2c1c(=O)n(C)c(=O)n2C (stereo not drawn) (tested in a mixture with another compound)
[A] -8.02

[Q] What value of max response has been reported for the following compound? Nc1nccs1
[A] -14.1

[Q] What value of max response has been reported for the following compound? ClC(Cl)Cl
[A] -2.31

[Q] What value of max response has been reported for the following compound? Oc1cccc(O)c1O
[A] -4

[Q] What value of max response has been reported for the following compound? CO/N=C(/C(=O)N[C@@H]1C(=O)N2C(C(=O)O)=C(COC(N)=O)CS[C@H]12)c1ccco1
[A] -14

[Q] What value of max response has been reported for the following compound? Cc1ncc[nH]1
[A] 5.14

[Q] What value of max response has been reported for the following compound? O.O.O.O.O.O.O.O=S(=O)([O-])[O-].[Co+2]
[A] 2.89

[Q] What value of max response has been reported for the following compound? C=C(C)C1CC=C(C)CC1 (stereo not drawn)
[A] 2.14
